Origin of values: patent US20090202547A1

target: T1, FR3exFc (human); test: BIAcore, Fab-dHLX-MH miniantibody
T1 construct: also called FGFR3/Fc; FR3/Fc
T1 sequence (chain, as listed by the source limits assumed): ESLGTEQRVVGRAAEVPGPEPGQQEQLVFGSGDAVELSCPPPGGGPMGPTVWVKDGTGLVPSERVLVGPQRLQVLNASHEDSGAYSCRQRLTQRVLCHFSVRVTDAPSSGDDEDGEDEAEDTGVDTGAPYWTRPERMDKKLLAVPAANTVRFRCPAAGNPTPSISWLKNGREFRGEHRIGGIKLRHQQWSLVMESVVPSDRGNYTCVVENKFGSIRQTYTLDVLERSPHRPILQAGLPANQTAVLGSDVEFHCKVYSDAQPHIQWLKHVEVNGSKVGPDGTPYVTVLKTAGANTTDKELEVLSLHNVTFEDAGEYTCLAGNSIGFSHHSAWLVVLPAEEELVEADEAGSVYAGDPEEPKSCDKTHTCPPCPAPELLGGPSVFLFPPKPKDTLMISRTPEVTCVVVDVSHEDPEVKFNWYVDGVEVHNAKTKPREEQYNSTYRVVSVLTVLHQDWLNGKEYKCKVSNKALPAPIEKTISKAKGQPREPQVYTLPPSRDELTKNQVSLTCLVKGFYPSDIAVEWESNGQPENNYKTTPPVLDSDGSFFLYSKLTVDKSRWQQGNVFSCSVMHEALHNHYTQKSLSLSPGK
PROPERTY_MEASURED: Kd (nM)
Answers are plain numbers, in nM.

The examples below pair each entry with its known result.
BINDER: MS-Pro-26-dHLX-MH (Fab, V domains shown, Fab mini-antibody format Fab-dHLX-MH, a dimer of the Fab monomer; also called MSPRO26 dimeric dHLX format; Fab-dHLX) VH: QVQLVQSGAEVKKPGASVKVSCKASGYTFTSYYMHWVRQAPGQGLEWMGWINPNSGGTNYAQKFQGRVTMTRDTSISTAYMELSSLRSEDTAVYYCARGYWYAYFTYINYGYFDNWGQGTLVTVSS VL: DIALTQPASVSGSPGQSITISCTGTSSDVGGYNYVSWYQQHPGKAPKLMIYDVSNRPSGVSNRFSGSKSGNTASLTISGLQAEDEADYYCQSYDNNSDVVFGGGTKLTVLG
ENDPOINT_RESULT: 2
//
BINDER: MS-Pro-11-dHLX-MH (Fab, V domains shown, Fab mini-antibody format Fab-dHLX-MH, a dimer of the Fab monomer; also called MSPRO11 Fab-dHLX) VH: QVQLVQSGAEVKKPGASVKVSCKASGYTFTSYYMHWVRQAPGQGLEWMGWINPNSGGTNYAQKFQGRVTMTRDTSISTAYMELSSLRSEDTAVYYCARYYGSSLYHYVFGGFIDYWGQGTLVTVSS VL: DIALTQPASVSGSPGQSITISCTGTSSDVGGYNYVSWYQQHPGKAPKLMIYDVSNRPSGVSNRFSGSKSGNTASLTISGLQAEDEADYYCQSHHFYEVFGGGTKLTVLG
ENDPOINT_RESULT: 0.7

Kindly review the next binder as well.
Need Kd, item MS-Pro-28-dHLX-MH (Fab, V domains shown, Fab mini-antibody format Fab-dHLX-MH, a dimer of the Fab monomer; also called MSPRO28 Fab-dHLX) VH: QVQLVQSGAEVKKPGSSVKVSCKASGGTFSSYAISWVRQAPGQGLEWMGGIIPIFGTANYAQKFQGRVTITADESTSTAYMELSSLRSEDTAVYYCARGGGWVSHGYYYLFDLWGQGTLVTVSS VL: DIQMTQSPSSLSASVGDRVTITCRASQGISSYLAWYQQKPGKAPKLLIYAASSLQSGVPSRFSGSGSGTDFTLTISSLQPEDFAVYYCFQYGSIPPTFGQGTKVEIKR
1.6
